target: CCK-B receptors (CHO-CCK) (Homo sapiens, UniProt P32239); construct: expressed in transfected cells; host or cells: CHO (CHO-CCK model cells); assay: Calcium flux (Fluo-8) agonist test on CHO-CCK model cells; type: cell-based; conditions: compound at 50 nM, CHO-CCK cells
*1 amine or outer side, *2 acyl side, *3 side chain or, on linkers, in order; H or OH if unused. Where a SMILES comes first, the peptide text is derived from it. [ ]: non-standard residue; d: D form. The star is where a group is joined. X1 = O=C([C@@]1(O)C[C@@H](O)[C@H](N[*:1])C([C@@H](O)[C@@H](O)CO)O1)[*:2]; Trp(1-Me) = Cn1cc(C[C@H](N)C(=O)O)c2ccccc21; NMeW = CN[C@@H](Cc1c[nH]c2ccccc12)C(=O)O; Phe(3-Br) = N[C@@H](Cc1cccc(Br)c1)C(=O)O; Aad = N[C@@H](CCCC(=O)O)C(=O)O; Aoc(2) = CCCCCC[C@H](N)C(=O)O; Nle = CCCC[C@H](N)C(=O)O; Cbz = O=C(OCc1ccccc1)*
property measured: % Act-Ave @ 50 nM
Answer format: value, then unit.

Worked cases, % Act-Ave @ 50 nM given:
CCCC[C@H](NC(=O)[C@H](Cc1c[nH]c2ccccc12)N(C)C(=O)[C@@H](N)CCC(=O)O)C(=O)N[C@@H](CCCC(=O)O)C(=O)N[C@@H](Cc1cccc(Br)c1)C(N)=O [HT-277, Glu-(N-Me-Trp)-Nle-Aa-Phe(3-Br)-NH2] (H-E[NMeW][Nle][Aad][Phe(3-Br)]-NH2)
13.46%
CCCC[C@H](NC(=O)[C@H](Cc1c[nH]c2ccccc12)N(C)C(=O)[C@@]1(O)C[C@@H](O)[C@H](NC(C)=O)C([C@@H](O)[C@@H](O)CO)O1)C(=O)N[C@@H](CCCC(=O)O)C(=O)N[C@@H](Cc1cccc(Br)c1)C(N)=O (stereo partly shown) [HT-275, Trp)-Nle-Aa-Phe(3-Br)-NH2] (Ac-[X1][NMeW][Nle][Aad][Phe(3-Br)]-NH2)
100.24%
CCCCCC[C@H](NC(C)=O)C(=O)N[C@@H](CC(=O)O)C(=O)N[C@@H](Cc1cccc(Br)c1)C(N)=O [HT-281, Ac-Oa-Asp-Phe(3-Br)-NH2] (Ac-[Aoc(2)]-Asp-[Phe(3-Br)]-NH2)
0.03%

# next compound below
Kindly note the recorded % Act-Ave @ 50 nM for CCCCCC[C@H](NC(=O)[C@H](Cc1cn(C)c2ccccc12)NC(=O)OCc1ccccc1)C(=O)N[C@@H](CC(=O)O)C(=O)N[C@@H](Cc1cccc(Br)c1)C(N)=O [HT-279, Cbz-(1-Me-Trp)-Oa-Asp-Phe(3-Br)-NH2] (Cbz-[Trp(1-Me)][Aoc(2)]D[Phe(3-Br)]-NH2) , which is 90.99%

====

Target: CCK-B receptors (CHO-CCK) (Homo sapiens)
Construct: expressed in transfected cells; host or cells: CHO (CHO-CCK model cells)
Sequence (P32239 1-447): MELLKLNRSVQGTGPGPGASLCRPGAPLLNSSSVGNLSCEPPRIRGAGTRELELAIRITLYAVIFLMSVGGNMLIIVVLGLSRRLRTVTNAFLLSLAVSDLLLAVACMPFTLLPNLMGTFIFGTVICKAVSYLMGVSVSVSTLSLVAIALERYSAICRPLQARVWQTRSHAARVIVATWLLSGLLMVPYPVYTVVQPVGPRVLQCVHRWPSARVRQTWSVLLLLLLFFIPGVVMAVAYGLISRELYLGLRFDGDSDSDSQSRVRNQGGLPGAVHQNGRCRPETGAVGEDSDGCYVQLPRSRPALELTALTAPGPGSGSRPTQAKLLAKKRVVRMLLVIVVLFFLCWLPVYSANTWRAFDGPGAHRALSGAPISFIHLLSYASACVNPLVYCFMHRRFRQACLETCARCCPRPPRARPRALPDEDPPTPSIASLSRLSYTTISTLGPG
Assay: Calcium flux (Fluo-8) agonist test on CHO-CCK model cells
Format: cell-based
Settings: CHO-CCK cells, compound alone; 100% = 20 nM CCK8
Where a SMILES comes first, the peptide text is derived from it. [ ]: non-standard residue; d: D form. Phe(3-Br) = N[C@@H](Cc1cccc(Br)c1)C(=O)O; NMeNle = CCCC[C@H](NC)C(=O)O
Recorded EC50, one value per entry.

CSCC[C@H](NC(=O)[C@H](N)Cc1c[nH]c2ccccc12)C(=O)N[C@@H](CC(=O)O)C(=O)N[C@@H](Cc1cccc(Cl)c1)C(N)=O
78.4 nM
CCCC[C@@H](C(=O)N[C@@H](CC(=O)O)C(=O)N[C@@H](Cc1cccc(Br)c1)C(N)=O)N(C)C(=O)[C@@H](Cc1c[nH]c2ccccc12)NC(C)=O [HT-179, Ac-D-Trp-(N-Me-Nle)-Asp-Phe(3-Br)-NH2] (Ac-[dW][NMeNle]D[Phe(3-Br)]-NH2)
1630 nM
CSCC[C@H](NC(=O)[C@H](N)Cc1c[nH]c2ccccc12)C(=O)N[C@@H](CC(=O)O)C(=O)N[C@@H](Cc1ccc(I)cc1)C(N)=O
864 nM
COC(=O)C[C@H](NC(=O)[C@H](CCSC)NC(=O)[C@H](N)Cc1c[nH]c2ccccc12)C(=O)N[C@@H](Cc1cccc(Br)c1)C(N)=O
572 nM

# next compound below
Kindly note the recorded EC50 for CC(=O)N[C@H](Cc1c[nH]c2ccccc12)C(=O)N[C@@H](CCC(N)=O)C(=O)N[C@@H](CC(=O)O)C(=O)N[C@@H](Cc1cccc(Br)c1)C(N)=O [HT-185, Ac-D-Trp-Gln-Asp-Phe(3-Br)-NH2] , which is 3820 nM

====

biological target: CCK-B receptors (CHO-CCK) (Homo sapiens, UniProt P32239); construct: expressed in transfected cells; host or cells: CHO (CHO-CCK model cells); experiment: Calcium flux (Fluo-8) antagonist test on CHO-CCK model cells in presence of CCK8; assay type: cell-based; details: compound together with 10 nM CCK8
Where a SMILES comes first, the peptide text is derived from it. [ ]: non-standard residue; d: D form. Phe(3-Br) = N[C@@H](Cc1cccc(Br)c1)C(=O)O
property measured: EC50 (µM)
Form entry: value (µM) — number only.

Worked cases, EC50 given:
CC(=O)N[C@H](Cc1c[nH]c2ccccc12)C(=O)N[C@@H](CCC(N)=O)C(=O)N[C@@H](CC(=O)O)C(=O)N[C@@H](Cc1cccc(Br)c1)C(N)=O [HT-185, Ac-D-Trp-Gln-Asp-Phe(3-Br)-NH2]
12
COC(=O)C[C@H](NC(=O)[C@H](CCSC)NC(=O)[C@H](N)Cc1c[nH]c2ccccc12)C(=O)N[C@@H](Cc1cc(F)cc(F)c1)C(N)=O [HT-90, D-Trp-Met-Asp(Ome)-Phe(3,5-DiF)-NH2]
5.91
C[S+]([O-])CC[C@H](NC(=O)[C@H](N)Cc1c[nH]c2ccccc12)C(=O)N[C@@H](CC(=O)O)C(=O)N[C@@H](Cc1cccc(I)c1)C(N)=O (stereo partly drawn) [HT-45, D-Trp-Met(O)-Asp-Phe(3-I)-NH2]
3.37
CSCC[C@H](NC(=O)[C@H](N)Cc1c[nH]c2ccccc12)C(=O)N[C@@H](CC(=O)O)C(=O)N[C@@H](Cc1ccc(C)cc1)C(N)=O [HT-30, D-Trp-Met-Asp-Phe(4 Me)-NH2]
0.683
CSCC[C@H](NC(=O)[C@H](N)Cc1c[nH]c2ccccc12)C(=O)N[C@@H](CC(=O)O)C(=O)N[C@@H](Cc1ccccc1F)C(N)=O [HT-25, D-Trp-Met-Asp-Phe(2-F)-NH2]
0.603

Kindly note the recorded EC50 for CSCC[C@H](NC(=O)[C@H](Cc1c[nH]c2ccccc12)NC(C)=O)C(=O)N[C@@H](CC(=O)O)C(=O)N[C@@H](CCCCN)C(N)=O [HT-194, Ac-Trp-Met-Asp-Lys-NH2] (Ac-WMDK-NH2) , which is 2.22

Kindly note the recorded EC50 for CSCC[C@H](NC(=O)[C@@H](Cc1ccc(O)cc1)NC(C)=O)C(=O)N[C@@H](CC(=O)O)C(=O)N[C@@H](Cc1cccc(Br)c1)C(N)=O [HT-182, Ac-D-Tyr-Met-Asp-Phe(3-Br)-NH2] (Ac-[dY]MD[Phe(3-Br)]-NH2) , which is 3.3

Kindly note the recorded EC50 for COC(=O)C[C@H](NC(=O)[C@H](CCSC)NC(=O)[C@H](N)Cc1c[nH]c2ccccc12)C(=O)N[C@@H](Cc1cccc(Br)c1)C(N)=O [HT-80, D-Trp-Met-Asp(Ome)-Phe(3-Br)-NH2] , which is 0.807

Kindly note the recorded EC50 for C[S+]([O-])CC[C@H](NC(=O)[C@H](N)Cc1c[nH]c2ccccc12)C(=O)N[C@@H](CC(=O)O)C(=O)N[C@@H](Cc1cc(Cl)cc(Cl)c1)C(N)=O (stereo partly drawn) [HT-55, D-Trp-Met(O)-Asp-Phe(3,5-DiCl)-NH2] , which is 1.79

Kindly note the recorded EC50 for CS(=O)(=O)CC[C@H](NC(=O)[C@H](N)Cc1c[nH]c2ccccc12)C(=O)N[C@@H](CC(=O)O)C(=O)N[C@@H](Cc1ccccc1F)C(N)=O [HT-59, D-Trp-Met(O2)-Asp-Phe(2-F)-NH2] , which is 9.22

Kindly note the recorded EC50 for CSCC[C@H](NC(=O)[C@H](N)Cc1c[nH]c2ccccc12)C(=O)N[C@@H](CC(=O)O)C(=O)N[C@@H](Cc1ccccc1[N+](=O)[O-])C(N)=O [HT-24, D-Trp-Met-Asp-Phe(2-NO2)-NH2] , which is 0.624

Kindly note the recorded EC50 for CSCC[C@H](NC(=O)[C@H](N)Cc1c[nH]c2ccccc12)C(=O)N[C@@H](CC(=O)O)C(=O)N[C@@H](Cc1cc(Cl)cc(Cl)c1)C(N)=O [HT-38, D-Trp-Met-Asp-Phe(3,5-DiCl)-NH2] , which is 0.0997

Kindly note the recorded EC50 for C[S+]([O-])CC[C@H](NC(=O)[C@H](N)Cc1c[nH]c2ccccc12)C(=O)N[C@@H](CC(=O)O)C(=O)N[C@@H](Cc1cccc(Br)c1)C(N)=O (stereo partly drawn) [HT-46, D-Trp-Met(O)-Asp-Phe(3-Br)-NH2] , which is 6.24

Kindly note the recorded EC50 for CSCC[C@H](NC(=O)[C@@H](Cc1c[nH]c2ccccc12)NC(C)=O)C(=O)N[C@@H](Cc1c[nH]cn1)C(=O)N[C@@H](Cc1cccc(Br)c1)C(N)=O [HT-189, Ac-D-Trp-Met-His-Phe(3-Br)-NH2] (Ac-[dW]MH[Phe(3-Br)]-NH2) , which is 5.95

Kindly note the recorded EC50 for CSCC[C@H](NC(=O)[C@H](Cc1c[nH]c2ccccc12)NC(C)=O)C(=O)N[C@@H](CC(=O)O)C(=O)N[C@@H](Cc1c[nH]c2ccccc12)C(N)=O [HT-193, Ac-Trp-Met-Asp-Trp-NH2] (Ac-WMDW-NH2) , which is 0.057

Kindly note the recorded EC50 for CSCC[C@H](NC(=O)[C@H](N)Cc1c[nH]c2ccccc12)C(=O)N[C@@H](CC(=O)O)C(=O)N[C@@H](Cc1cc(F)c(F)c(F)c1)C(N)=O [HT-40, D-Trp-Met-Asp-Phe(3,4,5-TriF)-NH2] , which is 0.244

Kindly note the recorded EC50 for CSCC[C@H](NC(=O)[C@H](Cc1c[nH]c2ccccc12)NC(C)=O)C(=O)N[C@@H](CC(=O)O)C(=O)N[C@@H](CCCNC(=N)N)C(N)=O [HT-195, Ac-Trp-Met-Asp-Arg-NH2] (Ac-WMDR-NH2) , which is 2.2

Kindly note the recorded EC50 for CSCC[C@H](NC(=O)[C@H](N)Cc1c[nH]c2ccccc12)C(=O)N[C@@H](CC(=O)O)C(=O)N[C@@H](Cc1cccc(I)c1)C(N)=O [HT-28, D-Trp-Met-Asp-Phe(3-I)-NH2] , which is 0.149
